src = ChEMBL document CHEMBL1126523

system: Rattus norvegicus; experiment: Tested for % inhibition in carrageenan-induced rat paw adema after peroral administration of 100 mg/kg dose at 2 hours; type: functional; settings: route oral
reported_metric: inhibition in vivo at 100 mg/kg (%)
Value expressed in %; do not type the unit.

compound_smiles: Cc1nnc(-c2nsc3ccccc23)o1
endpoint_value: 43
//
compound_smiles: CCNc1nnc(-c2nsc3ccccc23)o1
endpoint_value: 53

Now let's try a different one.
Give recorded inhibition in vivo at 100 mg/kg with Rattus norvegicus for the following molecule: "CCNc1nnc(-c2nsc3ccccc23)s1" 34
